assay: Intravenous pharmacokinetics in rats; assay type: in vivo; conditions: plasma, iv; rat, i.v. 1 mg/kg, n = 3
recorded-metric: AUC
Please answer using the number first and the unit second.

input: Could you share which AUC value was measured for Oc1c(Br)cc(Cl)cc1Cc1cc(Cl)cc(Br)c1O ?
output: 30500 ng·h/mL

----------
assay: Dermal pharmacokinetics / in vivo dermal absorption in rats; set-up: species or system rat; conditions: rat, plasma, topical, 234 mg/kg formulation; read-out: F, dermal bioavailability
recorded-metric: bioavailability (%)
One number for each entry, in %.

input: Looking for the measured bioavailability of Oc1c(Br)cc(Cl)cc1Cc1cc(Cl)cc(Br)c1O [BCP] , can you help?
output: 12.2

----------
test: Intravenous pharmacokinetics in rats; assay type: in vivo; conditions: plasma, iv; rat, i.v. 1 mg/kg, n = 3; read-out: Vd, volume of distribution
recorded-metric: Vd (L/kg)
Give bare numbers, in L/kg.

input: Consider the molecule shown here: Oc1c(Br)cc(Cl)cc1Cc1cc(Cl)cc(Br)c1O What is its recorded Vd?
output: 1.06

----------
test: Intravenous pharmacokinetics in rats; assay type: in vivo; details: plasma, iv; rat, i.v. 0.2 mg/kg, n = 3
recorded-metric: AUC (ng·h/mL)
One number for each entry, in ng·h/mL.

input: Sample Oc1c(Br)cc(Cl)cc1Cc1cc(Cl)cc(Br)c1O [BCP] — what was its AUC?
output: 4190

----------
assay: Intravenous pharmacokinetics in rats; type: in vivo; conditions: plasma, iv; rat, i.v. 0.2 mg/kg, n = 3; read-out: Vd, volume of distribution
recorded-metric: Vd

input: Can you look up the measured Vd of Oc1c(Br)cc(Cl)cc1Cc1cc(Cl)cc(Br)c1O for me?
output: 1.74 L/kg

----------
assay: Intravenous pharmacokinetics in rats; assay type: in vivo; details: plasma, iv; rat, i.v. 1 mg/kg, n = 3
recorded-metric: AUC(0-inf) (ng·h/mL)
Give bare numbers, in ng·h/mL.

input: Query: AUC(0-inf); subject: Oc1c(Br)cc(Cl)cc1Cc1cc(Cl)cc(Br)c1O
output: 41600

----------
test: Intravenous pharmacokinetics in rats; assay type: in vivo; details: plasma, iv; rat, i.v. 0.2 mg/kg, n = 3; read-out: CL, systemic clearance (converted)
recorded-metric: clearance (mL/min/kg)
Numbers only, in mL/min/kg.

input: Entry Oc1c(Br)cc(Cl)cc1Cc1cc(Cl)cc(Br)c1O has what clearance?
output: 0.576

----------
assay: Intravenous pharmacokinetics in rats; type: in vivo; conditions: plasma, iv; rat, i.v. 0.2 mg/kg, n = 3; read-out: Cmax, peak plasma concentration
recorded-metric: Cmax

input: Can you look up the measured Cmax of Oc1c(Br)cc(Cl)cc1Cc1cc(Cl)cc(Br)c1O for me?
output: 4190 ng/mL

----------
experiment: Intravenous pharmacokinetics in rats; assay type: in vivo; settings: plasma, iv; rat, i.v. 0.2 mg/kg, glycerol formal, n = 3; read-out: T1/2, terminal elimination half-life (converted)
recorded-metric: half-life (h)
One number for each entry, in h.

input: half-life for Oc1c(Br)cc(Cl)cc1Cc1cc(Cl)cc(Br)c1O ?
output: 34.5

----------
experiment: Intravenous pharmacokinetics in rats; format: in vivo; conditions: plasma, iv; rat, i.v. 1 mg/kg, n = 3; read-out: CL, systemic clearance (converted)
recorded-metric: clearance (mL/min/kg)
One number for each entry, in mL/min/kg.

input: So what's the measured clearance for this one? Oc1c(Br)cc(Cl)cc1Cc1cc(Cl)cc(Br)c1O
output: 0.401

----------
Experiment: Intravenous pharmacokinetics in rats
Type: in vivo
Details: plasma, iv; rat, i.v. 1 mg/kg, n = 3; read-out: Cmax, peak plasma concentration
Procedure: Blood samples (>0.2 mL) for plasma were collected by cannulated right jugular vein at 1, 2, 5, 10, and 30 min, and 1, 2, 4, 6, 12, 24, 36, and 48 h post-dose. […] In the in vivo study, the terminal elimination half-life (T1/2) was calculated to be 0.693/λz. The slope of the last phase (λz) is the individual estimate of the terminal elimination rate constant, which is calculated using log-linear regression of the terminal portions of the plasma concentration–time curves. […]
recorded-metric: Cmax (ng/mL)
Give bare numbers, in ng/mL.

input: Suppose we examine the compound Oc1c(Br)cc(Cl)cc1Cc1cc(Cl)cc(Br)c1O [BCP] ; what Cmax value has been reported?
output: 11400

----------
assay: Intravenous pharmacokinetics in rats; format: in vivo; conditions: plasma, iv; rat, i.v. 0.2 mg/kg, n = 3
recorded-metric: AUC(0-inf) (ng·h/mL)
One number for each entry, in ng·h/mL.

input: I would be grateful if you could share the reported AUC(0-inf) for Oc1c(Br)cc(Cl)cc1Cc1cc(Cl)cc(Br)c1O .
output: 5860

----------
assay: Intravenous pharmacokinetics in rats; type: in vivo; conditions: plasma, iv; rat, i.v. 1 mg/kg, glycerol formal, n = 3; read-out: T1/2, terminal elimination half-life (converted)
recorded-metric: half-life
Please don't drop the unit; write it after the number.

input: Requested field: half-life. Item: Oc1c(Br)cc(Cl)cc1Cc1cc(Cl)cc(Br)c1O
output: 30.5 h
